Experiment: Metabolic stability in rat liver microsomes
Assay type: ADME, Microsome
Details: read-out: Stability
Listed compounds paired with reported microsomal CLint
Report the value in µL/min/mg with no unit label.

Example results:
[
  {
    "chem smiles": "CC(C)(C)[C@H]1C(O)=C(C2=CS(=O)(=O)c3cc(NS(C)(=O)=O)ccc3N2)C(=O)N1Cc1ccc(F)cc1",
    "microsomal CLint / µL/min/mg": 32
  },
  {
    "chem smiles": "CC(C)(C)CCN1C(=O)C(C2=CS(=O)(=O)c3cc(NS(C)(=O)=O)ccc3N2)=C(O)[C@@H]1C(C)(C)C",
    "microsomal CLint / µL/min/mg": 79
  },
  {
    "chem smiles": "Cc1cc(CN2C(=O)C(C3=CS(=O)(=O)c4cc(NS(C)(=O)=O)ccc4N3)=C(O)[C@@H]2C(C)(C)C)ccc1F",
    "microsomal CLint / µL/min/mg": 327
  }
]

Would you kindly look at the next entry?
Input line: Please give the measured microsomal CLint for this compound: CC(C)(C)[C@H]1C(O)=C(C2=CS(=O)(=O)c3cc(NS(C)(=O)=O)ccc3N2)C(=O)N1Cc1ccc(F)c(Cl)c1
Output line: 84

----------
Biological target: Genome polyprotein (Hepatitis C virus genotype 1b (isolate Con1) (HCV))
Experiment: Inhibition of […] 1b con1 NS5B polymerase assessed as [3H]UTP incorporation into acid insoluble RNA product
pIC50: −log10 of the molar value.
We use 8 as the dividing line for pIC50: on or above the line is satisfied, below is not satisfied.

Input line: # bool: pIC50 of Cc1cc(CN2C(=O)C(C3=CS(=O)(=O)c4cc(NS(C)(=O)=O)ccc4N3)=C(O)[C@@H]2C(C)(C)C)ccc1F >= 8
Output line: satisfied

----------
Molecular target: Genome polyprotein (Hepatitis C virus genotype 1b (isolate Con1) (HCV), UniProt Q9WMX2)
Sequence (Q9WMX2 2420-3010 limits assumed): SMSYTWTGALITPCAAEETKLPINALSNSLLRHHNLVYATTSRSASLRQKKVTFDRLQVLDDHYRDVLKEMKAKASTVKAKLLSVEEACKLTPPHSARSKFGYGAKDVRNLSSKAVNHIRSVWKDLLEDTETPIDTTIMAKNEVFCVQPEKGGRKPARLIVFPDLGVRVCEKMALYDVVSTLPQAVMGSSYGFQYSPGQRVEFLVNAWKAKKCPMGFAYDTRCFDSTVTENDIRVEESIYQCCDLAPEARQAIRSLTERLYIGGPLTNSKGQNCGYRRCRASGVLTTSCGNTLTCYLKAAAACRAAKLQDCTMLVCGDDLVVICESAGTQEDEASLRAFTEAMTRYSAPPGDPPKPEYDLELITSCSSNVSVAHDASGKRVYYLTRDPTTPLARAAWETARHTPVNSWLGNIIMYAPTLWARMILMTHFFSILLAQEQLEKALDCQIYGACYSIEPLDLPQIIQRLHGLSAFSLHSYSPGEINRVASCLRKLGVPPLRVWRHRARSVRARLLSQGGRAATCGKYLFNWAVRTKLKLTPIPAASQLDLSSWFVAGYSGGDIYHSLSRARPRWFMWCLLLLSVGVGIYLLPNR
Assay: Inhibition of […] 1b con1 NS5B polymerase assessed as [3H]UTP incorporation into acid insoluble RNA product
Threshold check on IC50: strictly below 10 nM is condition met; on or above 10 nM is condition not met.

[
  {
    "chem smiles": "CC(C)(C)[C@H]1C(O)=C(C2=C(Cl)S(=O)(=O)c3cc(NS(C)(=O)=O)ccc3N2)C(=O)N1Cc1ccc(F)cc1",
    "cat": "condition met"
  },
  {
    "chem smiles": "CC(C)(C)[C@H]1C(O)=C(C2=CS(=O)(=O)c3cc(NS(C)(=O)=O)ccc3N2)C(=O)N1Cc1ccc(F)cn1",
    "cat": "condition not met"
  },
  {
    "chem smiles": "CC(C)(C)[C@H]1C(O)=C(C2=CS(=O)(=O)c3cc(NS(C)(=O)=O)ccc3N2)C(=O)N1Cc1ccccc1",
    "cat": "condition met"
  }
]

Please examine the following record next.
Input line: Strictly below 10 nM in IC50? CC(C)(C)[C@H]1C(O)=C(C2=CS(=O)(=O)c3cc(F)ccc3N2)C(=O)N1Cc1ccc(F)cc1
Output line: condition not met

----------
Molecular target: Genome polyprotein (Hepatitis C virus genotype 1b (isolate Con1) (HCV), UniProt Q9WMX2)
Assay: Inhibition of […] 1b con1 NS5B polymerase assessed as [3H]UTP incorporation into acid insoluble RNA product
property measured: IC50 (nM)
Response body: numeric value in nM, unit text excluded.

Below are worked cases with known answers.
[
  {
    "chem smiles": "CC1=C(C2=C(O)[C@H](C(C)(C)C)N(Cc3ccc(F)cc3)C2=O)Nc2ccc(NS(C)(=O)=O)cc2S1(=O)=O",
    "test value": 10
  },
  {
    "chem smiles": "CC(C)(C)[C@H]1C(O)=C(C2=CS(=O)(=O)c3cc(C#N)ccc3N2)C(=O)N1Cc1ccc(F)cc1",
    "test value": 1200
  },
  {
    "chem smiles": "CC(C)(C)[C@H]1C(O)=C(C2=CS(=O)(=O)c3cc(NS(C)(=O)=O)ccc3N2)C(=O)N1Cc1ccc(F)c(Cl)c1",
    "test value": 5
  }
]

Input line: Can you share its IC50? I mean this molecule: CC(C)CCN1C(=O)C(C2=CS(=O)(=O)c3cc(NS(C)(=O)=O)ccc3N2)=C(O)[C@@H]1C(C)(C)C
Output line: 5
